Values were extracted from patent US11498904B2.

# Target Entity: IDO1 (Homo sapiens)
# Sequence (P14902 whole entry): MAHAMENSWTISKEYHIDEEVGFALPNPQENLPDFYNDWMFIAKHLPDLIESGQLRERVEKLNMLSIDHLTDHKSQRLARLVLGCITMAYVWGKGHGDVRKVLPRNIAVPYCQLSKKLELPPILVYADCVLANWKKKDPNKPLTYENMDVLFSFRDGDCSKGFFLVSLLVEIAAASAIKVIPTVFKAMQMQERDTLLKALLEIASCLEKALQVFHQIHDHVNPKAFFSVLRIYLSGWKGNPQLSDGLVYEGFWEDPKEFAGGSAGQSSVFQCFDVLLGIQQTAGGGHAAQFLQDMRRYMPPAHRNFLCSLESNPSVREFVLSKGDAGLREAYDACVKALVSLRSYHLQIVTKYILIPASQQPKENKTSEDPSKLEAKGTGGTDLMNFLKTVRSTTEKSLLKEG
# Test Protocol: IDO1 Human Whole Blood Assay
# Condition Set: LPS and IFNγ 100 ng/mL, 18 h, kynurenine by LC/MS/MS, read-out: Human Whole Blood Potency, IC50
# Experimental: IDO1 Human Whole Blood Assay Compounds to be tested were serially diluted in ten 3-fold steps in DMSO starting from 10 mM. […] LPS and IFNγ was prepared in RPMI to a 10× of final conc. (1000 ng/mL), final concentration is 100 ng/mL. 240 μL of blood was transferred to each of the wells of a v-bottom 96 well plate. […] Acetonitrile. […] 20 μL of supernatant was carefully transferred to a 384 well plate contain 40 μL of 0.1% formic acid in water and analyzed by LC/MS/MS. […]
Counter-ions that a name gives are not always drawn.
Value Type: IC50 (µM)
The response must be a number in µM with no trailing unit.

Would you please look over these solved cases?
>>> value_measured("COc1cc(C)c(-c2ccc(C3(NC(=O)c4ccc(C#N)cc4)CCC3)cc2)c(C)n1 [Example 36]")
0.308
>>> value_measured("CC1CC1(NC(=O)c1ccc(F)cc1)c1ccc(-c2cnc(C(F)(F)F)cc2C(C)(C)O)nc1 (single isomer, unassigned) [Example 56]")
0.361
>>> value_measured("O=C(NC1(c2ccc(-c3cnc(OC4CC4)cc3CO)cc2)CC1)c1ccc(F)cc1 [Example 48]")
0.922
>>> value_measured("C[C@@H](O)c1cc(C(F)(F)F)ncc1-c1ccc(C2(NC(=O)c3ccc(F)cc3)CC2)cc1 [Example 51, 2,2,2-trifluoroacetate salt]")
0.233
>>> value_measured("Cc1cc(C2CC2)ncc1-c1ccc(C2(NC(=O)c3ccc(C#N)cc3)CCC2)cc1 [Example 12]")
0.246

Exercise: If you can, please state the reported IC50 value of CC(C)(O)c1cc(C(F)(F)F)ncc1-c1ccc(C2(NC(=O)c3ccc(F)cc3)CCC2)cc1 [Example 52] .
Key: 0.152

Exercise: If you can, please state the reported IC50 value of CC(C)Oc1cc(CO)c(-c2ccc(C3(NC(=O)c4ccc(F)cc4)CC3)cc2)cn1 [Example 49] .
Key: 0.579
